Recorded folding stability dG values for a group of variants are listed next.
B1: r16_88_TrROS_Hall (parent)
chain: EVIELKIKFKTPEQREKLKEIAKKLNAEVVEEKDGEVIIRFKTPEQAERALKEAEKLGAEVEL

Variants of: B1
test-summary: folding stability dG (cDNA display proteolysis); higher = more stable
conditions-used: PBS, room temperature
Write down the numeric answer in kcal/mol and omit the unit.

Known folding stability dG results, listed for orientation:
Fill in: folding stability dG of EVIELKIKFKTPEQREKLKEIAKKLNAEVVEEKDGEVIIRFKWPEQAERALKEAEKLGAEVEL [T43W] is ___
4.29

And the next one, EVIELKIKFKTPEQREKLKEIAKKLNEEVVEEKDGEVIIRFKTPEQAERALKEAEKLGAEVEL [A27E] ?
3.84

And the next one, EVIELKIKFKTPEQREKLKEIAKKLNAEVVEEKDGEVIIREKTPEQAERALKEAEKLGAEVEL [F41E] ?
0.961

And the next one, EVIELKIKFKTPEQREKLKEIAKKLNAEVVEEKDGEVIIRFKTFEQAERALKEAEKLGAEVEL [P44F] ?
4.54

And the next one, EVIELKIKFKTPEQREKLKEIAKKLNAEVVEEKDGEVIIPFKTPEQAERALKEAEKLGAEVEL [R40P] ?
2.96

And the next one, EVIELKIKFKTPEQREKLKEIAKKLNAEVVEEKDGEVIIRFKTPEQAERALKEAEKLGGEVEL [A59G] ?
4.18

And the next one, EVIELKIKYKTPEQREKLKEIAKKLNAEVVEEKDGEVIIRFKTPEQAERALKEAEKLGAEVEL [F9Y] ?
4.33

And the next one, EVIELKIKFKTPEQREKLKELAKKLNAEVVEEKDGEVIIRFKTPEQAERALKEAEKLGAEVEL [I21L] ?
4.39

And the next one, EVIELKIKFKTPEQREKAKEIAKKLNAEVVEEKDGEVIIRFKTPEQAERALKEAEKLGAEVEL [L18A] ?
4.39

And the next one, EVIELKIKFKTPEQREKLKEIAKKLNAEVNEEKDGEVIIRFKTPEQAERALKEAEKLGAEVEL [V30N] ?
4.52

More entries:
Fill in: folding stability dG of EVIELKIKFKTPEQREKLKEIAKKLNAEVVEEKDGEVYIRFKTPEQAERALKEAEKLGAEVEL [I38Y] is ___
4.76

And the next one, EVIELKIKFKTPEQREKLKEIAKKLNAEVVEEKDGEVSIRFKTPEQAERALKEAEKLGAEVEL [I38S] ?
4.26

And the next one, EVIELKIKFKTPCQREKLKEIAKKLNAEVVEEKDGEVIIRFKTPEQAERALKEAEKLGAEVEL [E13C] ?
4.88

And the next one, EVIELKIKFKTPEQREKLEEIAKKLNAEVVEEKDGEVIIRFKTPEQAERALKEAEKLGAEVEL [K19E] ?
4.12
